System name: KRas G12D (Homo sapiens, UniProt P01116, G12D);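 also: TR-FRET displacement binding assay on KRas, read after a one-hour incubation at room temperature, IC50 fitted from percent-of-control values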
Sequence (P01116 1-169 isoform P01116-2 G12D): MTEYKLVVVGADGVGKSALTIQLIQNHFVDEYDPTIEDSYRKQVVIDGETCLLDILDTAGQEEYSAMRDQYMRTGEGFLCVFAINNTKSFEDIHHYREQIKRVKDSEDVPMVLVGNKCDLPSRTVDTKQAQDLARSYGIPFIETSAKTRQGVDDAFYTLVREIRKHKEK
Method description: biochemical
pIC50: −log10 of the molar value.
Reported endpoint: pIC50

a: CCc1c(F)ccc2cc(O)cc(-c3ncc4c(OCCCc5cccnc5)nc(OC[C@@]56CCCN5C[C@H](F)C6)nc4c3F)c12 [Example 298]
b: O=C1CC2(CCCN(c3nc(OC[C@@]45CCCN4C[C@H](F)C5)nc4c(F)c(-c5cc(O)cc6ccc(F)c(F)c56)ncc34)C2)CN1 (stereo partly drawn) [Example 446]
c: CCc1c(F)ccc2cc(O)cc(-c3ncc4c(NCc5cc[nH]n5)nc(OC[C@@]56CCCN5C[C@H](F)C6)nc4c3F)c12 [Example 159]
Qu. Using measured pIC50, arrange the molecules from above in descending sequence. Use the labels to give the ranking in the order requested.
Ans. b, c, a
(b: 8.40, c: 7.41, a: 5.82)

----------
System name: KRas G12C (Homo sapiens, UniProt P01116, G12C)
Sequence (P01116 1-169 isoform P01116-2 G12C): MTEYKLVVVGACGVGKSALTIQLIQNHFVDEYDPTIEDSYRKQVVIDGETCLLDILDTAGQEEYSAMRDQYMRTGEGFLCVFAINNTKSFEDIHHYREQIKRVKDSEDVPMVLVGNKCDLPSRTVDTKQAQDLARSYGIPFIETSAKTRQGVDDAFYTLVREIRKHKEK
Method description: biochemical
Reported endpoint: IC50 (nM)

1: CCc1cccc2cccc(-c3ncc4c(N5CCCC6(CNC(=O)N6)C5)nc(OCC56CCCN5CCC6)nc4c3F)c12 (stereo not shown)
2: O=S1(=O)CC(Nc2nc(OCC34CCCN3CCC4)nc3c(F)c(-c4cccc5cccc(F)c45)ncc23)C1
3: Cc1ccc2[nH]ncc2c1-c1ncc2c(N3CCCC(C)(O)C3)nc(OCC34CCCN3CCC4)nc2c1F (stereo not shown)
4: CCc1c(F)ccc2cc(O)cc(-c3ncc4c(N5CCC[C@]6(C5)C[C@](C)(O)C6)nc(OCC56CCCN5CCC6)nc4c3F)c12
Qu. Using measured IC50, arrange the compounds from above in descending sequence. Use the labels to give the ranking in the order requested.
Ans. 3, 2, 1, 4
(3: 7830 nM, 2: 3620 nM, 1: 13 nM, 4: 9 nM)

----------
System: phospho-ERK in AsPC-1 (G12D) cells
Method description: Inhibition of KRas-mediated phosphorylation of ERK (in-cell western)
Type: cell-based
Condition parameters: 3 hours compound, phospho-ERK normalized to GAPDH
Reported endpoint: IC50 (nM)
Kindly answer with a numeric value in nM, unit omitted.

>  <Molecule>
CCc1c(F)ccc2cc(O)cc(-c3ncc4c(N5C[C@H](O)C[C@@H](O)C5)nc(OC[C@@]56CCCN5C[C@H](F)C6)nc4c3F)c12 [Example 296]

>  <Measurement units>
nM

>  <IC50>
2200

$$$$

Qu. Endpoint output: IC50 of CCc1c(F)ccc2cc(O)cc(-c3ncc4c(N5C[C@H](O)C[C@@H](O)C5)nc(OC[C@@]56CCCN5C[C@H](F)C6)nc4c3F)c12 [Example 59] . Value?
Ans. 577

----------
System name: KRas Q61H (Homo sapiens, UniProt P01116, Q61H)
Construct: Biotinylated KRas (corresponding to amino acids 1-169, produced at Accelegan Inc.); biotin (biotinylated); purchased Accelegan Inc
Sequence (P01116 1-169 isoform P01116-2 Q61H): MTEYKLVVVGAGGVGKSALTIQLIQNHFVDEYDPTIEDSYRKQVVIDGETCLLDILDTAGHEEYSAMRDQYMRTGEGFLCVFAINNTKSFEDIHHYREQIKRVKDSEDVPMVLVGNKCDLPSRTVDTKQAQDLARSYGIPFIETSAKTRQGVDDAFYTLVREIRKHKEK
Method description: KRas binding assay (TR-FRET displacement);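 also: TR-FRET signal read after one hour at room temperature, IC50 derived by four-parameter fitting of percent-of-control values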
Reported endpoint: IC50 (nM)

The cases that follow already have their IC50 on record.
>  <Molecule>
Fc1c(-c2cccc3cccc(F)c23)ncc2c(NCCNc3cccnc3)nc(OCC34CCCN3CCC4)nc12

>  <System name>
KRas Q61H (Homo sapiens, UniProt P01116, Q61H)

>  <Measurement units>
nM

>  <IC50>
29800

$$$$
>  <Molecule>
CC1(O)COCCN(c2nc(OCC34CCCN3CCC4)nc3c(F)c(-c4cccc5cccc(F)c45)ncc23)C1 (stereo not shown)

>  <System name>
KRas Q61H (Homo sapiens, UniProt P01116, Q61H)

>  <Measurement units>
nM

>  <IC50>
1550

$$$$
>  <Molecule>
OCC1COCCN(c2nc(OCC34CCCN3CCC4)nc3c(F)c(-c4cccc5cccc(F)c45)ncc23)C1 (stereo not shown)

>  <System name>
KRas Q61H (Homo sapiens, UniProt P01116, Q61H)

>  <Measurement units>
nM

>  <IC50>
1990

$$$$
>  <Molecule>
Fc1c(-c2cccc3cccc(F)c23)ncc2c(NCc3ccc4nonc4c3)nc(OCC34CCCN3CCC4)nc12

>  <System name>
KRas Q61H (Homo sapiens, UniProt P01116, Q61H)

>  <Measurement units>
nM

>  <IC50>
39000

$$$$
>  <Molecule>
Fc1c(-c2cccc3cccc(F)c23)ncc2c(N3CCCC4(COC4)C3)nc(OCC34CCCN3CCC4)nc12

>  <System name>
KRas Q61H (Homo sapiens, UniProt P01116, Q61H)

>  <Measurement units>
nM

>  <IC50>
7470

$$$$

P: Fc1c(-c2cccc3cccc(F)c23)ncc2c(NCc3cnn4c3OCCC4)nc(OCC34CCCN3CCC4)nc12
Q: Cc1cc2[nH]ncc2c(-c2ncc3c(N4CCCC(C)(O)C4)nc(OCC45CCCN4CCC5)nc3c2F)c1C1CC1 (stereo not shown)
Qu. Problem: Given the entries P and Q , determine which has the lower reported IC50. Please reply using the label of the selected record.
Ans. Q
(Q: 82 nM, P: 52900 nM)

----------
System name: KRas G12S (Homo sapiens, UniProt P01116, G12S)
Sequence (P01116 1-169 isoform P01116-2 G12S): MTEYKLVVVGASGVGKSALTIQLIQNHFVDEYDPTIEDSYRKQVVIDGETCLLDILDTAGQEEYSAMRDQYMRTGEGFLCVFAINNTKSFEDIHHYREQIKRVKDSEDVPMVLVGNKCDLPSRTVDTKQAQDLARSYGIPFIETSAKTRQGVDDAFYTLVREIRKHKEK
Method description: biochemical
pIC50: −log10 of the molar value.
Reported endpoint: pIC50

>  <Compound>
CCc1cccc2cccc(-c3ncc4c(N5CCOCC(C)(O)C5)nc(OCC56CCCN5CCC6)nc4c3F)c12 (stereo not drawn) [Example 291]

>  <System name>
KRas G12S (Homo sapiens, UniProt P01116, G12S)

>  <pIC50>
6.72

$$$$
>  <Compound>
O=S1(=O)CC(CNc2nc(OCC34CCCN3CCC4)nc3c(F)c(-c4cccc5cccc(CO)c45)ncc23)C1 [Example 443]

>  <System name>
KRas G12S (Homo sapiens, UniProt P01116, G12S);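 also: TR-FRET displacement binding to KRas, read after one hour incubation at room temperature, IC50 from four-parameter fit of percent of control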

>  <pIC50>
5.20

$$$$

a: Fc1c(-c2cccc3cccc(F)c23)ncc2c(N3CCCC4(CC(F)C4)C3)nc(OCC34CCCN3CCC4)nc12 (stereo not drawn) [Example 234]
b: Fc1c(-c2cccc3cccc(Cl)c23)ncc2c(N3CCCC(n4cccn4)C3)nc(OCC34CCCN3CCC4)nc12 (stereo not drawn) [Example 109]
Qu. Problem: Given the entries a and b , determine which has the lower reported pIC50. Please reply using the label of the selected record.
Ans. b

1: Fc1c(-c2cccc3cccc(Cl)c23)ncc2c(N3CC(n4ccnc4)C3)nc(OCC34CCCN3CCC4)nc12 [Example 101]
2: OCc1n[nH]c(CNc2nc(OCC34CCCN3CCC4)nc3c(F)c(-c4cccc5cccc(Cl)c45)ncc23)n1 [Example 105]
Qu. Problem: Given the entries 1 and 2 , determine which has the lower reported pIC50. Please reply using the label of the selected record.
Ans. 2

1: O=c1cc(CNc2nc(OCC34CCCN3CCC4)nc3c(F)c(-c4cccc5cccc(F)c45)ncc23)[nH][nH]1 [Example 231]
2: O=C1CC2(CCCN(c3nc(OCC45CCCN4CCC5)nc4c(F)c(-c5cccc6cccc(F)c56)ncc34)C2)N1 (stereo not drawn) [Example 97]
3: CCc1cccc2cccc(-c3ncc4c(N5CCCC(c6nc[nH]n6)C5)nc(OCC56CCCN5CCC6)nc4c3F)c12 (stereo not drawn) [Example 295]
4: Fc1c(-c2cccc3cccc(F)c23)ncc2c(NCCc3c[nH]c4ncccc34)nc(OCC34CCCN3CCC4)nc12 [Example 212]
5: CCc1c(F)ccc2cc(O)cc(-c3ncc4c(NCc5n[nH]cc5C)nc(OC[C@@]56CCCN5C[C@H](F)C6)nc4c3F)c12 [Example 161]
Qu. Ordering: ascending pIC50. Use the labels to give the ranking in the order requested.
Ans. 1, 4, 3, 2, 5

P: Cc1ccc(O)cc1-c1ncc2c(N3CCCC(C)(O)C3)nc(OCC34CCCN3CCC4)nc2c1F (stereo not drawn) [Example 432]
Q: NS(=O)(=O)CC1CCCN(c2nc(OCC34CCCN3CCC4)nc3c(F)c(-c4cccc5cccc(CF)c45)ncc23)C1 (stereo not drawn) [Example 460]
Qu. Hi, I'm comparing P with Q and wondering which one has the bigger number for pIC50. Any idea? Please reply using the label of the selected record.
Ans. Q

a: O=C1NC(=O)C2(CCCN(c3nc(OCC45CCCN4CCC5)nc4c(F)c(-c5cccc6cccc(F)c56)ncc34)C2)N1 (stereo not drawn) [Example 158]
b: C#Cc1cccc2cccc(-c3ncc4c(N5C[C@@H]6C(=O)NC(=O)[C@@H]6C5)nc(OCC56CCCN5CCC6)nc4c3F)c12 [Example 458]
c: O=C1NC(=O)C2CN(c3nc(OCC45CCCN4CCC5)nc4c(F)c(-c5cccc6cccc(F)c56)ncc34)CC12 (stereo not drawn) [Example 228]
Qu. Ordering: ascending pIC50. Use the labels to give the ranking in the order requested.
Ans. c, a, b

A: O=C1CC2(CCCN(c3nc(OCC45CCCN4CCC5)nc4c(F)c(-c5cccc6cccc(F)c56)ncc34)C2)CN1 (stereo not drawn) [Example 20]
B: OCC12CC(Nc3nc(OCC45CCCN4CCC5)nc4c(F)c(-c5cccc6cccc(F)c56)ncc34)(C1)C2 [Example 85]
C: Fc1c(-c2cccc3cccc(F)c23)ncc2c(N3CCCC4(CCC4)C3)nc(OCC34CCCN3CCC4)nc12 [Example 232]
D: NC(=O)c1cc2n(n1)CCCN(c1nc(OCC34CCCN3CCC4)nc3c(F)c(-c4cccc5cccc(F)c45)ncc13)C2 [Example 258]
Qu. Ordering: ascending pIC50. Use the labels to give the ranking in the order requested.
Ans. C, B, A, D
(C: 4.71, B: 5.33, A: 5.53, D: 5.99)

P: NC(=O)N1CC(Nc2nc(OCC34CCCN3CCC4)nc3c(F)c(-c4cccc5cccc(Cl)c45)ncc23)C1 [Example 107]
Q: Cc1cccc2cccc(-c3ncc4c(N5CCCC6(CNC(=O)N6)C5)nc(OCC56CCCN5CCC6)nc4c3F)c12 (stereo not drawn) [Example 454]
Qu. Hi, I'm comparing P with Q and wondering which one has the bigger number for pIC50. Any idea? Please reply using the label of the selected record.
Ans. Q

P: O=C1NCC2(CCCN(c3nc(OCC45CCCN4CCC5)nc4c(F)c(-c5cccc6cccc(Cl)c56)ncc34)C2)N1 (stereo not drawn) [Example 284]
Q: O=C1NC(=O)C2(CCCN(c3nc(OCC45CCCN4CCC5)nc4c(F)c(-c5cccc6cccc(Cl)c56)ncc34)C2)N1 (stereo not drawn) [Example 282]
Qu. Problem: Given the entries P and Q , determine which has the lower reported pIC50. Please reply using the label of the selected record.
Ans. P
